Taken from patent US20150018311A1.

System: Escherichia coli (ATCC 25922)
experiment.description: Growth in liquid media in presence of test compound
Format: cell-based
conditions.used: 5 mg/L
experimental.endpoint: Growth in the presence of test compound, E. coli

1. CC1(C)C2CC3OB(CC(CCc4ccccc4)NC(=O)C(N)CCCCN)OC3(C)C1C2 (stereo not shown)	+
2. CC1(C)C2CC3OB(CCNC(=O)[C@@H](N)CCCCN)O[C@]3(C)C1C2 (stereo partly shown)	+
3. N[C@@H](Cc1ccccc1)C(=O)NC[C@@H](Cc1ccccc1)[B-](F)(F)F.[K+]	+
4. CC(B1OC2CC3CC(C3(C)C)C2(C)O1)C(Cc1ccccc1)NC(=O)C(Cc1ccccc1)NC(=O)C(N)CCCCN (stereo not shown)	+
5. CC1(C)C2CC3OB(CC(Cc4ccccc4)NC(=O)C(N)CCCCN)OC3(C)C1C2 (stereo not shown) [Compound 44]	+
6. CC1(C)C2CC3OB(C(Cc4ccccc4)C(Cc4ccccc4)NC(=O)C(N)CCCCN)OC3(C)C1C2 (stereo not shown)	+
7. Cl.Cl.NCCCC[C@@H](N)C(=O)NC[C@@H](Cc1ccccc1)B(O)O	+
8. Cl.Cl.NCCCC[C@@H](N)C(=O)NC[C@@H](Cc1ccc(OC(F)(F)F)cc1)B(O)O	+
9. CC1(C)C2CC3OB(CC(Cc4ccccc4)NC(=O)C(N)CCCCN)OC3(C)C1C2 (stereo not shown) [Compound 54]	+
10. CC1(C)C2CC3OB([C@H](CNC(=O)[C@@H](N)Cc4ccccc4)Cc4ccccc4)O[C@@]3(C)C1C2 (stereo partly shown)	+
11. C[C@H](N)C(=O)NC[C@H](Cc1ccccc1)B1OC2CC3CC(C3(C)C)[C@]2(C)O1 (stereo partly shown)	+
12. N[C@@H](Cc1ccccc1)C(=O)NC[C@@H](CCc1ccccc1)B(O)O	+
13. CC1(C)C2CC3OB([C@@H](CNC(=O)[C@@H](N)Cc4ccccc4)Cc4ccc(F)cc4)O[C@]3(C)C1C2.Cl (stereo partly shown)	+
14. CC1(C)C2CC3OB([C@@H](CNC(=O)[C@@H](N)CCCCN)Cc4ccc5ccccc5c4)O[C@]3(C)C1C2 (stereo partly shown)	+
15. Cl.N[C@@H](Cc1ccccc1)C(=O)NC[C@@H](Cc1ccc(OC(F)(F)F)cc1)B(O)O	+
16. CC1(C)C2CC3OB([C@H](CCc4ccccc4)CNC(=O)[C@@H](N)Cc4ccccc4)O[C@]3(C)C1C2 (stereo partly shown)	+
17. CC1(C)C2CC3OB(C(CNC(=O)C(N)CCCCN)Cc4ccccc4)OC3(C)C1C2 (stereo not shown)	+
18. CC1(C)C2CC3OB(C(CNC(=O)C(N)CCCCN)Cc4ccc(OC(F)(F)F)cc4)OC3(C)C1C2.Cl.Cl (stereo not shown) [Compound 47]	+
19. CC1(C)C2CC3OB([C@@H](CNC(=O)[C@@H](N)Cc4ccccc4)Cc4ccc5ccccc5c4)O[C@]3(C)C1C2.Cl (stereo partly shown)	+
20. NCCCCC(N)C(=O)NC(CB(O)O)Cc1ccccc1 (stereo not shown)	+
21. CC1(C)C2CC3OB([C@@H](CNC(=O)[C@@H](N)Cc4ccccc4)Cc4ccc(OC(F)(F)F)cc4)O[C@]3(C)C1C2.Cl (stereo partly shown)	+
22. CC1(C)C2CC3OB(CC(Cc4ccccc4)NC(=O)C(N)CCCCN)OC3(C)C1C2 (stereo not shown) [Compound 1]	+
